Property: melting point (°C)
Report only the number, with the unit °C understood.

Solved cases below.
CC(C)(C)OC(=O)N1CCC[C@H]1C(=O)O [N-boc-L-proline] : 134
C=C(C)CC [2-Methylbut-1-ene] : -137
CCC(c1ccccc1)c1ccccc1 [1,1-diphenylpropane] : 14
CCCCN [Butylamine] : -49
O=[N+]([O-])c1cc[n+]([O-])c(Br)c1 [2-bromo-4-nitropyridine n-oxide] : 145

Next compound, melting point to be filled in.
Form: compound = CC(=O)N[C@H]1C(O)O[C@H](CO)[C@@H](O)[C@@H]1O (stereo partly drawn) [N-Acetyl-D-glucosamine] ; melting point = 205
